# credit: PubChem BioAssay (NCI)

Test system: BT-549 breast
Assay: NCI-60 one-dose screen, 48 h
Details: 10 µM unless noted
Experimental: Growth inhibition of the BT-549 human tumor cell line is measured as a screen for anti-cancer activity. Cells are grown in 96 well plates and exposed to the test compound for 48 hours. Compounds are tested at a single concentration, which is 10^-5 M for most compounds. The reported endpoint is percent growth (GI% or GIPRCNT), where numbers from 0 - 100% represent growth inhibition, and numbers from -100% - 0 represent cell death. For example, a value of 40 represents 60% growth inhibition. […]
Compounds without any hit were thinned out: in the full panel of roughly 83,000, 20% have a hit. Activity calls are given as the source filed them. The calls were made as follows: active = growth percent below 10; inactive = the rest.
Outcomes: active, inactive

| compound | assigned-category |
| --- | --- |
| Nc1c(C(=O)Nc2ccc(Cl)cc2)cc(-c2nc3ccccc3s2)c(=O)n1NS(=O)(=O)c1ccc(Cl)cc1 | inactive |
| O=C(O)CCCCCCCCCCCCCCC(=O)O | inactive |
| CCC1(CC)NC(=O)c2c(c3ccc(Cl)c(Cl)c3n2C)C1C#N (centres undefined) | inactive |
| N#Cc1c(Nc2ccccc2)nn2cc(-c3nc4ccccc4s3)c(N)nc12 | inactive |
| COc1cc(-c2cc(=O)oc3cc(O)ccc23)c(OC)c2c1OCO2 | inactive |
| COC(=O)C1=C(C(=O)ONCCN(C)C)C2C=CC1(C(Cc1ccccc1)Nc1ccc(F)cc1)O2 (centres undefined) | inactive |
| CCCCCCCCN1C(=O)/C(=c2\sc3n(c2=O)C2C(NN=3)N(CC)C(=O)N2CC)c2ccccc21 (centres undefined) | inactive |
| O=C(Nc1ccccc1)Oc1ccccc1-c1ccccc1 | inactive |
| O=S(=O)(c1ccccc1)N1CCCc2ccccc21 | inactive |
| C[C@H]1[C@H](C)CC[C@]2(CO)CC[C@]3(C)C(=CC[C@@H]4[C@@]5(C)CCCNC(C)(C)[C@@H]5CC[C@]43C)[C@H]12 | active |
| CC1(C)CCCN1CCCN1c2ccccc2Sc2ccc(Cl)cc21 | inactive |
| O=C1C(=O)c2c(nc3ncccn23)-c2ccccc21 | active |
| Cc1ccc(S(=O)(=O)Nc2ccc(Cl)cc2)cc1 | inactive |
| CCCN=C(N)c1ccc(NC(=O)c2ccc(C(=O)Nc3ccc(C(N)=NCCC)cc3)cc2)cc1 | inactive |
| COc1nccnn1 | inactive |
| CC(O)/C=C/C=C/C(O)CC/C=C/C(=O)NCC(C)(C)O (centres undefined) | inactive |
| Cc1c2c(cc[n+]1Cc1ccccc1)c1ccc(OCc3ccccc3)cc1n2Cc1ccccc1 | active |
| CN1CCN(C(=O)OCc2nc3c(N4CCOCC4)nc(-c4ccccc4)nc3n2C)CC1 | active |
| COc1ccccc1-c1c(-c2ccc(Cl)cc2)c2cc3c(cc2[nH]c1=O)OCCO3 | inactive |
| NC(=O)c1cccc(-n2ccc3cc(NC(=O)Nc4cc(C(F)(F)F)cc(C(F)(F)F)c4)ccc32)n1 | inactive |
| CC(=O)c1cc2c(N)c(C(=O)Nc3cncc4ccccc34)sc2nc1C | inactive |
| O=C1Nc2cc(-c3ccncc3)ccc2/C1=C/c1ccc[nH]1 | inactive |
| N#Cc1c(NC(=O)c2cccc(Br)c2)sc2c1CCCC2 | inactive |
| S=c1[nH]cccc1-c1nnc2n1Nc1nc3ccccc3cc1CS2 | inactive |
| COc1ccc(C(=O)c2cc(C)c(OC)c(C)c2)c(OC)c1N(C(=O)C(Cl)Cl)C(=O)C(Cl)Cl | active |
| COc1ccc(C(=O)c2cc(C)c(OC)c(C)c2)c(OC)c1O | active |
| COc1ccc(C2CC(c3cccc(Nc4ccncc4)c3)=NN2c2ccc(Cl)cc2)cc1 (centres undefined) | inactive |
| CC[C@H](CC[C@@H](C)[C@H]1CC[C@H]2[C@@H]3CC=C4C[C@@H](OCCc5nn[nH]n5)CC[C@]4(C)[C@H]3CC[C@]12C)C(C)C | inactive |
| COc1ccc(-c2nc(N/N=C/c3cccc(O)c3)nc(N3CCOCC3)c2C#N)cc1 | inactive |
| COc1cccc(CNCCN2C(=O)c3ccc4c5c(ccc(c35)C2=O)C(=O)N(CCNCc2cccc(OC)c2)C4=O)c1 | inactive |
| Cc1c2c(cc[n+]1Cc1ccc(F)cc1)c1ccc(OCc3cccc(F)c3)cc1n2Cc1cccc(F)c1 | active |
| CC1CCN(C(=O)OCc2nc3nc(Cl)nc(N4CCOCC4)c3[nH]2)CC1 | active |
| COc1ccc(/C=C/C(=O)c2ccc(OC)c(OC)c2)cc1O | inactive |
| CCN(CC)CCCC(Nc1c2ccc(Cl)cc2nc2ccc(OC)cc12)c1ccc(Cl)cc1 (centres undefined) | inactive |
